# Test system: DAX1
# EXPERIMENT NOTES: DAX1 reporter assay (KJMGER8/pAGal9p4‐hDAX1 cells, luciferase)
# Assay type: cell-based, human
# PARTICULARS: Homo sapiens, KJMGER8; Table S3; read-out: DAX1 reporter IC50
ASSAY METRIC: pIC50
// pIC50 here means minus log10 of the molar concentration (mol/L)

Sample answers from the record:
| COMPOUND | pIC50 |
| --- | --- |
| Cc1c(-c2ccc(-c3ccccc3F)cc2)nc2ccc(F)cc2c1C(=O)O | 7.14 |
| C/C(O)=C(\C#N)C(=O)Nc1ccc(C(F)(F)F)cc1 [Teriflunomide] | 5.07 |
| O=C(O)c1c2c(nc3ccc(F)cc13)-c1ccc(-c3ccccc3F)cc1CCC2 | 7.88 |

Shift focus to the following entry.
Recorded pIC50 of CC(=O)N1CCc2c([nH]c3ccc(Br)cc23)C1c1ccccc1 (stereo not shown) , please.
6.18
